Reported caspase activation values are given for each entry in this list.
assay: apoptosis induction in non-primed human MEWO line – cell-based, luminescence, dry powder, set 2, counter-screen for A1 inhibitor project, dose response (AID 504354); details: MEWO cells (unprimed), caspase-Glo luminescence, 3 h, active compounds read high; at 35 µM unless noted
Calls of active or inactive are those of the source.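 The calls were made as follows: active = curve reaches 10% of the strong reference activator's caspase signal at or below the top valid tested dose; inactive = signal moves in the opposite direction, or the rest.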

Some entries whose results are on file:
Cn1c(=O)c([N+](=O)[O-])c(-n2cnc3ccccc32)c2ccccc21: 1.87% [at 4.2 µM] (inactive)
CCOCCCNc1c([N+](=O)[O-])c(=O)n(C)c2ccccc12: 2.4% (inactive)

Proceed to the following item.
Fill in: caspase activation of Cn1c(=O)c([N+](=O)[O-])c(Oc2ccccc2)c2ccccc21 is ___
2.97% [at 0.135 µM] (inactive)

* * *

experiment: apoptosis induction in non-primed human MEWO line – cell-based, luminescence, dry powder, set 2, counter-screen for A1 inhibitor project, dose response (AID 504354); conditions: MEWO cells (unprimed), caspase-Glo luminescence, 3 h, active compounds read high; at 35 µM unless noted
Calls of active or inactive are those of the source.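 The calls were made as follows: active = curve reaches 10% of the strong reference activator's caspase signal at or below the top valid tested dose; inactive = signal moves in the opposite direction, or the rest.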
MEASURE NAME: caspase activation

Worked cases, answers included:
Cc1ccc(Sc2c([N+](=O)[O-])c(=O)n(C)c3ccccc23)cc1: 2.38% (inactive)
O=c1oc2ccccc2c(Sc2ccccc2)c1[N+](=O)[O-]: -5.15% (inactive)
Cn1c(=O)c([N+](=O)[O-])c(Cl)c2ccccc21: 4.66% [at 8 µM] (inactive)
Cc1ccc(Nc2c([N+](=O)[O-])c(=O)oc3ccccc23)cc1: 1.87% [at 2.1 µM] (inactive)
O=c1oc2ccccc2c(Cl)c1[N+](=O)[O-]: -4.52% [at 16 µM] (inactive)
CN1C(=O)C(C)(C)N(Cc2ccccc2)c2ccccc21: 0.935% [at 2.1 µM] (inactive)

Requested field: caspase activation. Item: O=c1oc2ccccc2c(Nc2cc(Cl)cc(Cl)c2)c1[N+](=O)[O-]
-1.06% [at 8 µM] (inactive)

What value of measured caspase activation is listed for Cc1ccc(Nc2c([N+](=O)[O-])c(=O)n(C)c3ccccc23)cc1 ?
1.4% [at 1 µM] (inactive)

Name the recorded caspase activation for CCSc1c([N+](=O)[O-])c(=O)oc2ccccc12 .
-0.935% [at 0.26 µM] (inactive)

For the compound shown here, Cc1ccc(Sc2c([N+](=O)[O-])cnc3ccccc23)cc1 , give the reported caspase activation.
6.63% [at 16 µM] (inactive)

Requested read-out: caspase activation. Entry: Cn1c(=O)c([N+](=O)[O-])c(Nc2ccc(Cl)cc2)c2ccccc21
1.87% [at 1 µM] (inactive)
